- measured.target: Gal4 DNA binding domain fused to the LBD of LXRα in HEK293 cells (Homo sapiens (Human))
- Sequence (Q13133 209-447): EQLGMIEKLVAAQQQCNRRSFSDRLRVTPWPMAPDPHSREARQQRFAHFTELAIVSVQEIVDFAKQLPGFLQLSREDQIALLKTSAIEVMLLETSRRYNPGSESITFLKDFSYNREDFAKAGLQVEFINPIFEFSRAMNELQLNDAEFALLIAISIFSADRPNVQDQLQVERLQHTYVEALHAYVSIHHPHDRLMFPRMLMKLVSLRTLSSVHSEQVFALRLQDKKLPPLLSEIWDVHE
- protocol.details: LXR luciferase transcriptional reporter gene assay, agonist mode, LXRα
- Assay type: cell-based
measured.endpoint: Cell LXRα efficacy

# compound, measured.target, observed
data = [
    ("NS(=O)(=O)c1cccc(N2CCN(C[C@H]3CC[C@@H](C(F)(F)F)CC3)[C@@H](c3ccccc3)C2)c1 (single isomer, unassigned)", "Gal4 DNA binding domain fused to the LBD of LXRα in HEK293 cells (Homo sapiens (Human))", "351 (62) %"),
    ("CS(=O)(=O)c1cccc(N2CCN(C[C@H]3CCC(C(F)(F)F)OC3)[C@@H](c3ccc(F)cc3)C2)c1 (single isomer, unassigned)", "Gal4 DNA binding domain fused to the LBD of LXRα in HEK293 cells (Homo sapiens (Human))", "1575 (67) %"),
    ("CC(C)[C@@H]1CN(c2ccc(C(N)=O)c(S(C)(=O)=O)c2)CCN1C(=O)OC(C)(C)C", "Gal4 DNA binding domain fused to the LBD of LXRα in HEK293 cells (Homo sapiens (Human))", "15676 (21) %"),
    ("CC(C)[C@@H]1CN(c2ccc(F)c(S(C)(=O)=O)c2)CCN1c1ncc(O)c(C(F)(F)F)n1", "Gal4 DNA binding domain fused to the LBD of LXRα in HEK293 cells (Homo sapiens (Human))", "3121 (100) %"),
]
